system: Rattus norvegicus; assay: Oral bioavailability in Sprague-Dawley rat at 2 mg/kg; format: ADME, organism-based; settings: in vivo
measurement_label: F (%)
Respond numerically; units are % and should not be typed.

Q. Using the record for Cn1nnc(-c2ccc(Nc3nccc(-c4cc(C#N)cc(N5CCOCC5)c4)n3)cc2)n1 , report its F.
A. 14

Q. Consider next the compound Fc1cc(-c2ccnc(Nc3ccc(-n4cnc(N5CCOCC5)n4)cc3)n2)cc(N2CCOCC2)c1 in the same way.
A. 45

Q. And for Cc1ncn(-c2ccc(Nc3nccc(-c4cccc(N5CCOCC5)c4)n3)cc2)n1 ?
A. 25

Q. Same lookup for N#Cc1cc(-c2ccnc(Nc3ccc(-n4cnc(-c5ccccn5)n4)cc3)n2)cc(N2CCOCC2)c1 , please.
A. 27

This collection of values is drawn from ChEMBL document CHEMBL1156783.
